Tested on: UO-31 renal
Assay: NCI tumour cell line growth inhibition, 48 h

{"COMPOUND": "Oc1ccc2ccccc2c1N=Nc1ccc(Cl)cc1", "TGI": "> 100 µM"}
{"COMPOUND": "Nc1nccc2c1ccn2-c1cccc(NC(=O)c2ccc(N3CCOCC3)c(C(F)(F)F)c2)c1", "TGI": "14 µM"}
{"COMPOUND": "Fc1cccc(Cl)c1Cn1c(-c2c(F)cccc2Cl)nc2ccccc21", "TGI": "28.4 µM"}
{"COMPOUND": "COC12C=CC(CC1)C(C)(C)C2OS(C)(=O)=O (stereo unspecified)", "TGI": "> 100 µM"}
{"COMPOUND": "C[C@@]12C[C@@H](c3ccccc3O1)N1Cc3ccccc3CSC1=N2", "TGI": "> 100 µM"}
{"COMPOUND": "COc1cc(C(=O)O/N=C(\\N)Cc2cccc3ccccc23)cc(OC)c1OC", "TGI": "19.6 µM"}
{"COMPOUND": "CC1=CC(=O)/C(=C/n2c(=S)[nH]c3cc(C)ccc32)C(=O)O1", "TGI": "> 100 µM"}
{"COMPOUND": "C=CCOCn1ccc(N)nc1=O", "TGI": "> 100 µM"}
{"COMPOUND": "O=C(Nc1ccc(Nc2ccncc2)cc1)c1ccc(Nc2ccnc3ccc([N+](=O)[O-])cc23)cc1[N+](=O)[O-]", "TGI": "> 64.1 µM"}
{"COMPOUND": "O=C1c2cccnc2-c2nccc3c2c1nc1ccc(Br)cc13", "TGI": "0.202 µM"}
{"COMPOUND": "CCOC(=O)Cn1c(-c2nonc2NC(=O)c2ccccc2F)nc2ccccc21", "TGI": "> 100 µM"}
